- Target Under Test: BCAT2 (Homo sapiens)
- Sequence (O15382 28-392): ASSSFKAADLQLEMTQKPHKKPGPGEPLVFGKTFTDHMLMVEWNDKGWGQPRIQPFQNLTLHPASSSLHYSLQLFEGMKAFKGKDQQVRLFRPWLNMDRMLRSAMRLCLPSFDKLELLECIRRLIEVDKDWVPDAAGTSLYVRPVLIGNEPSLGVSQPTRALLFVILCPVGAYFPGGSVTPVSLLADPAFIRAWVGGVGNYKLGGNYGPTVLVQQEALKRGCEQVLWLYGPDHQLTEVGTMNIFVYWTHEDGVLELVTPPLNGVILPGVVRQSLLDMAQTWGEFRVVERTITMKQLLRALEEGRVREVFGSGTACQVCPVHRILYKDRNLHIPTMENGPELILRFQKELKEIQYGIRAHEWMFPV
- Assay Method Text: BCAT2 in vitro enzyme inhibition assay (resazurin/diaphorase-coupled fluorescence)
- Assay type: biochemical
- Measurement Setup: average where tested multiple times
pIC50: −log10 of the molar value.
Readout Label: pIC50

Specify measured pIC50 for Cc1cn[nH]c1-c1cc2c(cn1)nc(-c1ccccc1F)n2[C@@H]1CCC[C@H](NC(=O)c2ncc(Cl)s2)C1 .
≥ 7.00

# return recorded pIC50 for entry O=C(N[C@H]1CCC[C@@H](n2c(-c3ccccc3F)nc3cnc(O[C@H]4CCOC4)cc32)C1)c1ncc(Cl)s1
6.30 to 7.00

Give recorded pIC50. CC(O)Cc1nc2cnc(-c3ccccn3)cc2n1[C@@H]1CCC[C@H](NC(=O)c2ncc(Cl)s2)C1 (stereo partly shown)
< 6.00

State, in one line, measured pIC50 of O=C(N[C@@H]1C[C@@H](O)C[C@H](n2c(-c3ccccc3F)nc3cnc(-n4nccn4)cc32)C1)c1ncc(C(F)F)s1 (single isomer, unassigned)
6.30 to 7.00

Given the compound CC(C)[C@H](O)c1nc2cnc(-c3ncccn3)cc2n1[C@@H]1CCC[C@H](NC(=O)c2ncc(Cl)s2)C1 , write its reported pIC50.
≥ 7.00

Retrieve pIC50 measured for CS(=O)(=O)N1C[C@H](NC(=O)c2ncc(Cl)s2)C[C@H](n2c(-c3ccccc3F)nc3cnc(-c4nc[nH]n4)cc32)C1 and print it.
≥ 7.00

State its pIC50 for this compound: C#Cc1cnc(C(=O)N[C@H]2CCC[C@@H](n3c(-c4ncccc4F)nc4cnc(-n5nccn5)cc43)C2)s1
≥ 7.00

----------
For each record, write down the corresponding pIC50.
Target protein (sequence): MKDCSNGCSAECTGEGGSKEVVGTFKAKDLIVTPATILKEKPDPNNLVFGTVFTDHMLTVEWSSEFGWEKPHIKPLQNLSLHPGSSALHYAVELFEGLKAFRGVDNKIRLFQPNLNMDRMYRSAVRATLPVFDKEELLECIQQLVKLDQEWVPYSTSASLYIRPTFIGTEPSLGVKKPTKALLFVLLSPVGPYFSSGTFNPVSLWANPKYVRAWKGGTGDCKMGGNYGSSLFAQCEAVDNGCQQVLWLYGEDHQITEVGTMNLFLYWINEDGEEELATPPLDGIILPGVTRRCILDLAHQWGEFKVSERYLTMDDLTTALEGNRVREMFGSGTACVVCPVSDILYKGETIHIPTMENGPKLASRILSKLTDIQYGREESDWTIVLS
pIC50: −log10 of the molar value.

Consider the molecule O=C(NC1COCC(n2c(-c3ccccc3F)nc3cnc(-n4nccn4)cc32)C1)c1ncc(C(F)F)s1 (single isomer, unassigned) [Example 142] and give its recorded pIC50.
> 6.30

Give the reported value of pIC50 for this record: O=C(N[C@H]1CCC[C@@H](n2c(-c3c(O)cccc3F)nc3cnc(-n4nccn4)cc32)C1)c1ncc(Cl)s1
> 6.30

Tell us which pIC50 value is on record for N#Cc1ccccc1-c1nc2cnc(-c3nc[nH]n3)cc2n1[C@@H]1CCC[C@H](NC(=O)c2ccc(Cl)s2)C1
6.00 to 6.30

Identify measured pIC50 corresponding to O=C(N[C@@H]1CCCC[C@H](n2c(-c3ccccc3F)nc3cnc(-c4nnc[nH]4)cc32)C1)c1ncc(Cl)s1 (single isomer, unassigned)
5.30 to 6.00

Look up pIC50 of Cc1cccnc1-c1nc2cnc(-n3nccn3)cc2n1[C@@H]1CCC[C@H](NC(=O)c2ncc(C(F)F)s2)C1 and report it.
6.00 to 6.30
